Each recorded value in this set is attributed to patent US20220323443A1.

System: SW620 cancer cells
Test: In vitro combination study with Compound 1, Cell Titer-Glo (ATP) cell viability, 72 h;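 also: Ten-by-ten dose matrices of both drugs in 384-well plates, luminescent ATP read-out, synergy evaluated against single-agent and DMSO vehicle controls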
Assay type: cell-based
Settings: Table 5 drug combined with Compound 1; 72 h
ENDPOINT NAME: Call, anti-proliferative effect of combination with Compound 1, SW620

The cases that follow already have their Call, anti-proliferative effect of combination with Compound 1, SW620 on record.
Nc1ccccc1NC(=O)c1ccc(CNC(=O)OCc2cccnc2)cc1 [Entinostat]: Synergy (0 to 0.7)
Cn1c(=O)n(-c2ccc(C(C)(C)C#N)cc2)c2c3cc(-c4cnc5ccccc5c4)ccc3ncc21 [BEZ-235]: Subadditivity (1.3 to 2)
COC1=CC(c2cc3ccccc3[nH]2)=N/C1=C\c1[nH]c(C)cc1C [Obatoclax]: Synergy (0 to 0.7)
Cc1[nH]c2ccccc2c1CCNCc1ccc(/C=C/C(=O)NO)cc1 [Panobinostat]: Additivity (0.7 to 1.3)
COc1cc([C@@H]2c3cc4c(cc3[C@@H](O[C@@H]3O[C@@H]5CO[C@@H](C)O[C@H]5[C@H](O)[C@H]3O)[C@H]3COC(=O)[C@H]23)OCO4)cc(OC)c1O [Etoposide]: Synergy (0 to 0.7)

Query string: Please report the recorded Call, anti-proliferative effect of combination with Compound 1, SW620 for CO[C@@H]1[C@H](N(C)C(=O)c2ccccc2)C[C@H]2O[C@]1(C)n1c3ccccc3c3c4c(c5c6ccccc6n2c5c31)C(=O)NC4 [PKC412] .
Result string: Additivity (0.7 to 1.3)

Query string: Further, for CCNC(=O)c1noc(-c2cc(C(C)C)c(O)cc2O)c1-c1ccc(CN2CCOCC2)cc1 [AUY-922] ?
Result string: Additivity (0.7 to 1.3)

Query string: Do the same for Nc1ncn([C@@H]2O[C@H](CO)[C@@H](O)[C@H]2O)c(=O)n1 [Azacitidine] please
Result string: Additivity (0.7 to 1.3)

Query string: Proceed to CS(=O)(=O)N1CCN(Cc2cc3nc(-c4cccc5[nH]ncc45)nc(N4CCOCC4)c3s2)CC1 [GDC-0941]
Result string: Additivity (0.7 to 1.3)

Query string: Next up: C/C=C(/C)C(=O)O[C@H]1C(C)=C2[C@H]([C@@H]1OC(=O)CCCCCCC)[C@@](C)(OC(C)=O)C[C@H](OC(=O)CCC)[C@@]1(O)[C@H]2OC(=O)[C@@]1(C)O [Thapsigargin]
Result string: Additivity (0.7 to 1.3)
